Origin of values: patent US9708334B2

Recorded IC50 for the following molecules
Target: GlyT1 (Homo sapiens)
Construct: expressed in transfected cells
Sequence (P48067 1-706): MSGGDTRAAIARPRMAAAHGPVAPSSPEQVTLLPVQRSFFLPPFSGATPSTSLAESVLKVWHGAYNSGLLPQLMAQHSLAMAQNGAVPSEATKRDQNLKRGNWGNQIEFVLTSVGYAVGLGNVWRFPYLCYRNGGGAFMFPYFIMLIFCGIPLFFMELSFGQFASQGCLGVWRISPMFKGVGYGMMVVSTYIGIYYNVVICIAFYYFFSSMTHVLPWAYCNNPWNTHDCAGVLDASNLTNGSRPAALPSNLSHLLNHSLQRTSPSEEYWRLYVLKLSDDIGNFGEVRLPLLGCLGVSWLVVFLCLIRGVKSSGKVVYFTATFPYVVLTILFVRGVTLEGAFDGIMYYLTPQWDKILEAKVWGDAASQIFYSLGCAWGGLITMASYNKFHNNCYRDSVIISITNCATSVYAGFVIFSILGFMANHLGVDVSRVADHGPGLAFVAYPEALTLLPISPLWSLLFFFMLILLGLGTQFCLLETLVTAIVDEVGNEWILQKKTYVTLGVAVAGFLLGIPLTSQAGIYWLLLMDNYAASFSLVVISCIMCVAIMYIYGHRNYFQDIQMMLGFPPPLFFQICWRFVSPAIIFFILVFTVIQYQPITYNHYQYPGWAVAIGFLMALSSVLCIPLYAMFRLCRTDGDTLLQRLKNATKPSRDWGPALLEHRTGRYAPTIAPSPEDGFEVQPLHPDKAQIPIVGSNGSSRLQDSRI
Assay: Glycine Transporter 1 (GlyT1) uptake assay, scintillation proximity assay of [14C]-glycine uptake
Format: cell-based
Conditions: SPA, four parameter logistic fit, read-out: GlyT1 (pIC50) (converted)

Solved cases below.
>  <molecule>
CC(C)Oc1ccc(C#N)cc1C(=O)N1Cc2cn(-c3ccn4ccnc4c3)nc2C1

>  <result>
1000 to 10000 nM

$$$$
>  <molecule>
COc1c(C#N)ccc(O[C@@H](C)C(F)(F)F)c1C(=O)N1Cc2cnn(-c3ccc(F)c(C)n3)c2C1

>  <result>
< 100 nM

$$$$
>  <molecule>
C[C@H](Oc1ccc(C#N)cc1C(=O)N1Cc2cn(CC3CCCC3)nc2C1)C(F)(F)F

>  <result>
100 to 1000 nM

$$$$
>  <molecule>
COc1c(C#N)ccc(OC(C)C(F)(F)F)c1C(=O)N1CCc2nn(-c3cncc(F)c3)cc2C1 (stereo not drawn)

>  <result>
< 100 nM

$$$$

Query: IC50; subject: CC(C)COc1ccc(S(C)(=O)=O)cc1C(=O)N1Cc2cn(-c3cccc(C(F)(F)F)c3F)nc2C1
< 100 nM

Next: CCS(=O)(=O)c1ccc(O[C@@H](C)C(F)(F)F)c(C(=O)N2Cc3cn(C4CCCC4)nc3C2)c1
< 100 nM

----------
molecules and their reported IC50
Molecular target: GlyT1 (Homo sapiens, UniProt P48067)
Construct: expressed in transfected cells
Sequence (P48067 1-706): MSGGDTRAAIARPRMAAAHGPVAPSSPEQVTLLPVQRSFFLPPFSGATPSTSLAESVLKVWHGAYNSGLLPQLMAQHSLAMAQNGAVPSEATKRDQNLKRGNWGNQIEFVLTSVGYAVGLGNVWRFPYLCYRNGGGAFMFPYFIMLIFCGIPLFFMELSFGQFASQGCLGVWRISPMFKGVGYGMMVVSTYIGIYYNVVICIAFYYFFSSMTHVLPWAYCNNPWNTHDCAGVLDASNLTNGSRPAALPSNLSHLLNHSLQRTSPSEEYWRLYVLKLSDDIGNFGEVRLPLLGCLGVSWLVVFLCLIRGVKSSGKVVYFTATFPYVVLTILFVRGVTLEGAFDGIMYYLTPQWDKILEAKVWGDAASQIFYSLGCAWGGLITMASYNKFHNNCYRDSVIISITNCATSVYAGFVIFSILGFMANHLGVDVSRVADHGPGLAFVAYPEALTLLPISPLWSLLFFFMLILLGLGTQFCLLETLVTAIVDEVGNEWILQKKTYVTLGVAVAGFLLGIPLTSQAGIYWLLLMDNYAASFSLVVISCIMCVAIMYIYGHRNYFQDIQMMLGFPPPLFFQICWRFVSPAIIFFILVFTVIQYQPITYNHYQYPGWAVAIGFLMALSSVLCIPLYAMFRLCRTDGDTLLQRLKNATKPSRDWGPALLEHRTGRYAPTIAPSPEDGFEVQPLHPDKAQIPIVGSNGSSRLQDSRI
Experiment: Glycine Transporter 1 (GlyT1) uptake assay, scintillation proximity assay of [14C]-glycine uptake
Format: cell-based
Settings: SPA, four parameter logistic fit, read-out: GlyT1 (pIC50) (converted)

Return IC50 measured with GlyT1 (Homo sapiens, UniProt P48067) given this molecule: CC(C)Oc1ccc(C#N)cc1C(=O)N1Cc2cn(-c3ccccc3)nc2C1
< 100 nM

Field entry: Cc1ccnc(-n2cc3c(n2)CN(C(=O)c2cc(C#N)ccc2O[C@@H](C)C(F)(F)F)C3)c1
100 to 1000 nM

Also CCS(=O)(=O)c1ccc(OC(C)C)c(C(=O)N2Cc3cn(C4CCCC4)nc3C2)c1 ?
< 100 nM

Query C[C@H](Oc1ccc(C#N)cc1C(=O)N1Cc2cn(CC3CCC3)nc2C1)C(F)(F)F next
100 to 1000 nM

Next record, please: N#Cc1ccc(C2CCCC2)c(C(=O)N2CCc3nn(-c4ccccc4)cc3C2)c1F
100 to 1000 nM

Entry COc1c(C#N)ccc(OC(C)C(F)(F)F)c1C(=O)N1CCc2nn(C)cc2C1 (stereo not drawn) please
100 to 1000 nM

Input COc1c(C#N)ccc(OC(C)C(F)(F)F)c1C(=O)N1Cc2cnn(-c3ccc(F)cn3)c2C1 (stereo not drawn)
< 100 nM

Try this molecule too: CC(Oc1ccc(C#N)c(Cl)c1C(=O)N1CCc2nn(-c3ccc(F)cn3)cc2C1)C(F)(F)F (stereo not drawn)
100 to 1000 nM

Param item: C[C@H](Oc1ccc(C#N)cc1C(=O)N1Cc2cn(-c3ccc(C#N)nc3)nc2C1)C(F)(F)F
100 to 1000 nM

Param item: [2H]C1(c2ccc(C#N)cc2C(=O)N2CCc3nn(-c4ccccc4)cc3C2)CCCC1
100 to 1000 nM

Also CCS(=O)(=O)c1ccc(N2CCC(F)(F)CC2)c(C(=O)N2Cc3cn(-c4cncc(F)c4)nc3C2)c1 , if possible.
< 100 nM

----------
Molecular target: GlyT1 (Homo sapiens)
Construct: expressed in transfected cells
Sequence (P48067 1-706): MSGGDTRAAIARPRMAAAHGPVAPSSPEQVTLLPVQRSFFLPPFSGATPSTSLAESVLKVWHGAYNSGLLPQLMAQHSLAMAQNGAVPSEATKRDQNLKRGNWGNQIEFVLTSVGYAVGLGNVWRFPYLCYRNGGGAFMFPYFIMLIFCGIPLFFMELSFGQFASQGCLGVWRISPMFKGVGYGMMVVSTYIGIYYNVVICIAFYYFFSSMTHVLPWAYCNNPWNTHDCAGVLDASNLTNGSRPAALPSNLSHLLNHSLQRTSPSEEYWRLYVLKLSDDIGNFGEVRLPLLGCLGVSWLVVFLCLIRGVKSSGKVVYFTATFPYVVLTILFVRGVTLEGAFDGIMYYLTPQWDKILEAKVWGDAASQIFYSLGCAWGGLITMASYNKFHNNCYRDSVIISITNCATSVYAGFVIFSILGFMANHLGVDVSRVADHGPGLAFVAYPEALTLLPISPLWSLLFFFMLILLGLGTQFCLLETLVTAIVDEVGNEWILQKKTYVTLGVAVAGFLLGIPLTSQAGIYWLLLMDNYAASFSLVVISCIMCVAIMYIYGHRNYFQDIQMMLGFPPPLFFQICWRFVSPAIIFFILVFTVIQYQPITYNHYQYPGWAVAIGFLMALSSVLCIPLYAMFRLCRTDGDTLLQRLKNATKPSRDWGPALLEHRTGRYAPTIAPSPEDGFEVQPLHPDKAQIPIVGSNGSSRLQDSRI
Experiment: Glycine Transporter 1 (GlyT1) uptake assay, scintillation proximity assay of [14C]-glycine uptake
Assay type: cell-based
Conditions: SPA, four parameter logistic fit, read-out: GlyT1 (pIC50) (converted)
observable: IC50

Some solved entries appear below for comparison.
>  <molecule>
CS(=O)(=O)c1ccc(OCC2CC2)c(C(=O)N2Cc3cnn(-c4cccc(C(F)(F)F)c4)c3C2)c1 [Example 159]

>  <IC50>
1000 to 10000 nM

$$$$
>  <molecule>
CC(C)n1ncc2c1CN(C(=O)c1cc(C#N)ccc1O[C@@H](C)C(F)(F)F)C2 [Example 384]

>  <IC50>
1000 to 10000 nM

$$$$
>  <molecule>
COc1c(C#N)ccc(OCC(C)(C)C)c1C(=O)N1Cc2cn(-c3ccc(F)cc3)nc2C1 [Example 511]

>  <IC50>
< 100 nM

$$$$

Now take the following molecule into account.
IC50 lookup needed for CCc1cc(-n2cc3c(n2)CN(C(=O)c2cc(S(C)(=O)=O)ccc2O[C@@H](C)C(F)(F)F)C3)ccn1 [Example 133] , thanks.
< 100 nM
